assay: Stability in 25% human serum assessed as compound degradation at 5 uM after 3 hrs incubated at 37 degC by reversed-phase HPLC method; type: ADME, cell-free; conditions: read-out: Drug degradation
measuredEndpoint: metabolised at 3 h, 5 µM (%)
One number for each entry, in %.

The value of metabolised at 3 h, 5 µM measured for the compound `C[C@@H]1NC(=O)[C@H](CCCNC(=N)N)NC(=O)[C@H](Cc2ccc3ccccc3c2)NC(=O)[C@@H]2CCCCN2C(=O)[C@@H]([C@H](C)OP(=O)(O)O)NC(=O)CN(C)C(=O)[C@@H](C)NC(=O)c2cc3cc(c2)C(=O)NC[C@H](NC(=O)[C@@H](C)NC1=O)C(=O)N[C@@H](Cc1ccccc1)C(=O)N[C@@H](Cc1ccc2ccccc2c1)C(=O)N[C@@H](CCCNC(=N)N)C(=O)N[C@@H](CCCNC(=N)N)C(=O)N[C@@H](CCCNC(=N)N)C(=O)N[C@@H](CCCNC(=N)N)C(=O)N[C@H](C(=O)N[C@@H](CCCCN)C(=O)O)CNC3=O` turned out to be 50
